System: SK-MEL-2 melanoma
Assay: NCI-60 one-dose screen, 48 h (100 = growth as untreated, 0 = no growth, -100 = all killed)
Settings: 10 µM unless noted
This is part of a sample that, as a whole, favours compounds with a hit. Of some 83,000 tested, about 20% had one in any assay.
READOUT: growth (%)

C=C(C)[C@@H]1CC[C@]2(C(=O)NCC#CCN3CCN(C)CC3)CC[C@]3(C)[C@H](CC[C@@H]4[C@@](C)(CCC#N)[C@H](C(=C)C)CC[C@]43C)[C@@H]12
91.8
CCOc1ccc(NC(=O)CSc2oc(-c3ccccc3)nc2S(=O)(=O)c2ccc(F)cc2)cc1
81.4
Oc1c(Cl)cc(Cl)c2ccc(Cn3cc(-c4ccc(C(F)(F)F)cc4)nn3)nc12
95.4
Cc1cc(N)c2cc(NC(=O)/C=C\c3ccccc3Cl)ccc2n1
-72.5
